The origin of these recorded values is ChEMBL document CHEMBL1144473.

Readings of pKi for the listed compounds
- experiment summary: Inhibition of rabbit liver carboxylesterase expressed in sf21 cells
- Type: cell-based, Oryctolagus cuniculus
pKi is a log-scale quantity: -log10 of the concentration expressed in molar.

Below, each entry is followed by its recorded pKi result.
{"columns": ["chemical string", "experimental value"],
 "data": [
  ["CCc1ccc2c(c1)NC(=O)C2=O", 4.53],
  ["CCc1cccc2c1C(=O)C(=O)N2", 4.46],
  ["Cc1cc(C)c(NCN2C(=O)C(=O)c3ccccc32)cc1C", 5.08],
  ["O=C1C(=O)N(CNc2ccc(Br)cc2)c2ccccc21", 5.90],
  ["CCc1ccc(NCN2C(=O)C(=O)c3ccccc32)cc1", 5.39],
  ["O=C1C(=O)N(CCBr)c2ccccc21", 5.29],
  ["Cc1cc(C)c2c(c1)C(=O)C(=O)N2", 4.52],
  ["Cc1ccc2c(c1)C(=O)C(=O)N2", 4.58],
  ["O=C1C(=O)N(Cc2ccc(Cl)c(Cl)c2)c2ccccc21", 7.19],
  ["O=C1Nc2c(ccc(Cl)c2Cl)C1=O", 5.85]
]}

Now examine the next entry.
Ask: Field request: pKi | item: O=C1C(=O)N(CNc2ccc(Cl)cc2)c2ccccc21
Result: 5.95
